Just for reference, patent US20240300924A1 is where these values come from.

// reported λmax (nm) (Thin film) per item
test: Maximum absorption wavelength of the adhesive film (thin film), UV-vis; format: physicochemical; conditions: adhesive film 22 μm to 23 μm; UV-vis apparatus (Shimazu UV-3600)

>  <molecule>
CC(C)c1nn(-c2ccccc2)c(O)c1C=C1C(=O)N(C2CCCCC2)C(=O)N(C2CCCCC2)C1=O [Compound P8]

>  <λmax (nm) (Thin film)>
408

$$$$
>  <molecule>
Cc1ccccc1-n1nc(C(C)C)c(C=C2C(=O)N(c3ccccc3)C(=O)N(c3ccccc3)C2=O)c1O [Compound P15]

>  <λmax (nm) (Thin film)>
398

$$$$
>  <molecule>
CC1=NN(c2ccccc2)C(=O)/C1=C\c1c(C)nn(-c2ccccc2)c1O [Comparative Compound Z2, reference compound]

>  <λmax (nm) (Thin film)>
403

$$$$
>  <molecule>
Cc1nn(-c2ccccc2)c(O)c1C=C1C(=O)NC(=O)NC1=O [Comparative Compound Z1, reference compound]

>  <λmax (nm) (Thin film)>
425

$$$$
>  <molecule>
Cc1ccccc1-n1nc(C(C)C)c(C=C2C(=O)N(C3CCCCC3)C(=O)N(C3CCCCC3)C2=O)c1O [Compound P9]

>  <λmax (nm) (Thin film)>
399

$$$$
>  <molecule>
Cc1nn(-c2ccccc2)c(O)c1C=C1C(=O)N(C2CCCCC2)C(=O)N(C2CCCCC2)C1=O [Compound P1]

>  <λmax (nm) (Thin film)>
407

$$$$
>  <molecule>
Cc1ccc(-n2nc(C)c(C=C3C(=O)N(C4CCCCC4)C(=O)N(C4CCCCC4)C3=O)c2O)c(C)c1 [Compound P4]

>  <λmax (nm) (Thin film)>
399

$$$$

###

Assay: Light fastness of adhesive film sample (change in transmittance ΔT)
Format: physicochemical
Settings: ΔT of transmittance for light of 390 to 450 nm; adhesive film sample with 0.29 part by weight compound; 55,600 lx*48 hours
Procedure: […] The maximum absorption wavelength λmax (nm) of each of the adhesive composition and the adhesive film was measured using a UV-vis apparatus (Shimazu UV-3600). In addition, the transmittance of the sample for light with a wavelength of 390 to 450 nm was measured by the UV-vis apparatus (Shimazu UV-3600). […] Furthermore, the transmittance of the sample for light in a region with a wavelength of 450 nm or more was measured by the UV-vis apparatus (Shimazu UV-3600). […]
test readout: Light fastness

>  <test smiles>
Cc1ccc(-n2nc(C(C)C)c(C=C3C(=O)N(C4CCCCC4)C(=O)N(C4CCCCC4)C3=O)c2O)c(C)c1

>  <readout value>
∘

$$$$
>  <test smiles>
Cc1ccccc1-n1nc(-c2ccccc2)c(C=C2C(=O)N(C3CCCCC3)C(=O)N(C3CCCCC3)C2=O)c1O

>  <readout value>
∘

$$$$
>  <test smiles>
CC(C)c1nn(-c2ccccc2)c(O)c1C=C1C(=O)N(C2CCCCC2)C(=O)N(C2CCCCC2)C1=O

>  <readout value>
∘

$$$$

###

test: Wavelength compatibility (transmittance of sample in region with 450 nm or more); assay type: physicochemical; settings: transmittance of adhesive film sample in region with wavelength of 450 nm or more

>  <test smiles>
O=C1C(=Cc2c(-c3ccccc3)nn(-c3ccccc3)c2O)C(=O)N(C2CCCCC2)C(=O)N1C1CCCCC1

>  <Wavelength compatibility>
∘

$$$$
>  <test smiles>
CC(C)c1nn(-c2ccccc2)c(O)c1C=C1C(=O)N(C2CCCCC2)C(=O)N(C2CCCCC2)C1=O

>  <Wavelength compatibility>
∘

$$$$
>  <test smiles>
Cc1ccc(-n2nc(C(C)C)c(C=C3C(=O)N(C4CCCCC4)C(=O)N(C4CCCCC4)C3=O)c2O)c(C)c1

>  <Wavelength compatibility>
∘

$$$$

###

assay: Wavelength compatibility (transmittance of sample in region with 450 nm or more); format: physicochemical; conditions: transmittance of adhesive film sample in region with wavelength of 450 nm or more

>  <molecule>
Cc1ccccc1-n1nc(C(C)C)c(C=C2C(=O)N(C3CCCCC3)C(=O)N(C3CCCCC3)C2=O)c1O

>  <Wavelength compatibility>
∘

$$$$
>  <molecule>
Cc1ccccc1-n1nc(C)c(C=C2C(=O)N(C3CCCCC3)C(=O)N(C3CCCCC3)C2=O)c1O

>  <Wavelength compatibility>
∘

$$$$
>  <molecule>
Cc1ccccc1-n1nc(C(C)C)c(C=C2C(=O)N(c3ccccc3)C(=O)N(c3ccccc3)C2=O)c1O

>  <Wavelength compatibility>
∘

$$$$
>  <molecule>
Cc1nn(-c2ccccc2)c(O)c1C=C1C(=O)N(C2CCCCC2)C(=O)N(C2CCCCC2)C1=O [Compound P1]

>  <Wavelength compatibility>
∘

$$$$
>  <molecule>
Cc1ccc(-n2nc(-c3ccccc3)c(C=C3C(=O)N(C4CCCCC4)C(=O)N(C4CCCCC4)C3=O)c2O)c(C)c1

>  <Wavelength compatibility>
∘

$$$$
>  <molecule>
Cc1ccc(-n2nc(C)c(C=C3C(=O)N(C4CCCCC4)C(=O)N(C4CCCCC4)C3=O)c2O)c(C)c1

>  <Wavelength compatibility>
∘

$$$$
>  <molecule>
Cc1ccccc1-n1nc(-c2ccccc2)c(C=C2C(=O)N(C3CCCCC3)C(=O)N(C3CCCCC3)C2=O)c1O

>  <Wavelength compatibility>
∘

$$$$

###

test: Maximum absorption wavelength of the adhesive composition (solution), UV-vis; format: physicochemical; settings: adhesive composition in MEK; UV-vis apparatus (Shimazu UV-3600)
// reported λmax (nm) (Solution) per item

>  <test smiles>
Cc1ccccc1-n1nc(-c2ccccc2)c(C=C2C(=O)N(C3CCCCC3)C(=O)N(C3CCCCC3)C2=O)c1O

>  <λmax (nm) (Solution)>
400

$$$$
>  <test smiles>
Cc1ccc(-n2nc(C(C)C)c(C=C3C(=O)N(C4CCCCC4)C(=O)N(C4CCCCC4)C3=O)c2O)c(C)c1

>  <λmax (nm) (Solution)>
403

$$$$
>  <test smiles>
Cc1ccccc1-n1nc(C(C)C)c(C=C2C(=O)N(C3CCCCC3)C(=O)N(C3CCCCC3)C2=O)c1O

>  <λmax (nm) (Solution)>
403

$$$$
>  <test smiles>
Cc1ccccc1-n1nc(C)c(C=C2C(=O)N(C3CCCCC3)C(=O)N(C3CCCCC3)C2=O)c1O

>  <λmax (nm) (Solution)>
404

$$$$
>  <test smiles>
CC(C)c1nn(-c2ccccc2)c(O)c1C=C1C(=O)N(C2CCCCC2)C(=O)N(C2CCCCC2)C1=O

>  <λmax (nm) (Solution)>
406

$$$$

###

assay: Solubility of compound in methyl ethyl ketone (MEK); type: physicochemical; conditions: solubility to 10 g of methyl ethyl ketone; 1 atm and room temperature
test readout: MEK solubility

>  <compound>
Cc1ccccc1-n1nc(C(C)C)c(C=C2C(=O)N(C3CCCCC3)C(=O)N(C3CCCCC3)C2=O)c1O [Compound P9]

>  <test readout>
MEK solubility

>  <readout value>
∘

$$$$
>  <compound>
CC1=NN(c2ccccc2)C(=O)/C1=C\c1c(C)nn(-c2ccccc2)c1O [Comparative Compound Z2, reference compound]

>  <test readout>
MEK solubility

>  <readout value>
∘

$$$$
>  <compound>
Cc1ccc(-n2nc(C)c(C=C3C(=O)N(C4CCCCC4)C(=O)N(C4CCCCC4)C3=O)c2O)c(C)c1 [Compound P4]

>  <test readout>
MEK solubility

>  <readout value>
∘

$$$$

###

// reported λmax (nm) (Thin film) per item
assay: Maximum absorption wavelength of the adhesive film (thin film), UV-vis; type: physicochemical; conditions: adhesive film 22 μm to 23 μm; UV-vis apparatus (Shimazu UV-3600)
test readout: λmax (nm) (Thin film)

>  <test smiles>
Cc1ccccc1-n1nc(-c2ccccc2)c(C=C2C(=O)N(C3CCCCC3)C(=O)N(C3CCCCC3)C2=O)c1O

>  <test readout>
λmax (nm) (Thin film)

>  <measurement units>
nm

>  <readout value>
400

$$$$
>  <test smiles>
O=C1C(=Cc2c(-c3ccccc3)nn(-c3ccccc3)c2O)C(=O)N(C2CCCCC2)C(=O)N1C1CCCCC1

>  <test readout>
λmax (nm) (Thin film)

>  <measurement units>
nm

>  <readout value>
406

$$$$
>  <test smiles>
Cc1ccc(-n2nc(C(C)C)c(C=C3C(=O)N(C4CCCCC4)C(=O)N(C4CCCCC4)C3=O)c2O)c(C)c1

>  <test readout>
λmax (nm) (Thin film)

>  <measurement units>
nm

>  <readout value>
398

$$$$
>  <test smiles>
Cc1ccccc1-n1nc(C)c(C=C2C(=O)N(C3CCCCC3)C(=O)N(C3CCCCC3)C2=O)c1O

>  <test readout>
λmax (nm) (Thin film)

>  <measurement units>
nm

>  <readout value>
400

$$$$
>  <test smiles>
Cc1ccc(-n2nc(-c3ccccc3)c(C=C3C(=O)N(C4CCCCC4)C(=O)N(C4CCCCC4)C3=O)c2O)c(C)c1

>  <test readout>
λmax (nm) (Thin film)

>  <measurement units>
nm

>  <readout value>
399

$$$$
